Target: ternary complex CRBN/PROTAC/METTL3–14 (Homo sapiens, UniProt Q86U44+Q96SW2)
Construct: methyltransferase domains (MTD) of METTL3 (residues 354–580); His6 (N, cleaved yes); made in house; host or cells: METTL3-MTD/METTL14-MTD: baculovirus/Sf9; CRBN-TBD: E. coli Rosetta (DE3), co-expressed with BirA
Sequence (Q86U44 354-580): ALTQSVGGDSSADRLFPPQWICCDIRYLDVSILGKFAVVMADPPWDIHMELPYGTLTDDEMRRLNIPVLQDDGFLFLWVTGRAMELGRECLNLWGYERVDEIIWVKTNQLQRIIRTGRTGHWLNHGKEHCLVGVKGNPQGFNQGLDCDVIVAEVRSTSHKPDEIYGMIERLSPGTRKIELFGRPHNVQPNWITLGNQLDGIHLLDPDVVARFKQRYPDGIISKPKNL
Sequence (Q9HCE5 107-395 partner limits assumed): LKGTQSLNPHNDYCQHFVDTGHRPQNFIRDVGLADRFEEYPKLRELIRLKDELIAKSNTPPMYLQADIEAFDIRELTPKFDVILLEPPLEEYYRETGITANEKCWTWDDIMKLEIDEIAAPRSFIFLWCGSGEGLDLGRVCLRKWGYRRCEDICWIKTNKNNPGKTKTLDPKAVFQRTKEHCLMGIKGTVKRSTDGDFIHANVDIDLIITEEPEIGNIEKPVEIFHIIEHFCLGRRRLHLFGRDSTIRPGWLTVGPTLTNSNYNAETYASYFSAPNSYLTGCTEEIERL
Sequence (Q96SW2 318-442): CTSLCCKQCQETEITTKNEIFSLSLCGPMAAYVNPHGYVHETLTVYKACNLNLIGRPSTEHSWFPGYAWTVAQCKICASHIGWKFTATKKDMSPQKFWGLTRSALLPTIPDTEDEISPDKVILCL
Experiment: FRET-based ternary complex formation assay (TCFA)
Assay type: binding
Conditions: Hook curve amplitude, fraction of the maximum of compound 16
Catalogue of molecules with associated TCFA amplitude (mean ± SEM)

Molecule	TCFA amplitude (mean ± SEM)
CC1(C)CCN(Cc2cc(F)c(N3CC(=O)NC4(CCN(c5cc(NCc6cccc(CNC(=O)CCCCCCCCCCn7cc(CNc8cccc9c8C(=O)N(C8CCC(=O)NC8=O)C9=O)nn7)c6)ncn5)CC4)C3)cc2F)CC1 (stereo not shown)	0.6
CC1(C)CCN(Cc2cc(F)c(N3CC(=O)NC4(CCN(c5cc(NCc6cn(CCCCCCCCCCC(=O)Nc7cccc8c7CN(C7CCC(=O)NC7=O)C8=O)nn6)ncn5)CC4)C3)cc2F)CC1 (stereo not shown)	0.7
CC1(C)CCN(Cc2ccc(N3CC(=O)NC4(CCN(c5cc(NCCCNC(=O)CCCCCCCCNc6cccc7c6CN(C6CCC(=O)NC6=O)C7=O)ncn5)CC4)C3)cc2)CC1 (stereo not shown)	0.7
CC1(C)CCN(Cc2ccc(N3CC(=O)NC4(CCN(c5cc(NCCCNC(=O)CCOCCOCCNc6cccc7c6C(=O)N(C6CCC(=O)NC6=O)C7=O)ncn5)CC4)C3)cc2)CC1 (stereo not shown)	0.03
CC1(C)CCN(Cc2cc(F)c(N3CC(=O)NC4(CCN(c5cc(NCc6cccc(CNC(=O)CCCNc7cccc8c7C(=O)N(C7CCC(=O)NC7=O)C8=O)c6)ncn5)CC4)C3)cc2F)CC1 (stereo not shown)	1.2
CC1(C)CCN(Cc2ccc(N3CC(=O)NC4(CCN(c5cc(NCCCNC(=O)CCCCCCCCCCNc6cccc7c6CN(C6CCC(=O)NC6=O)C7=O)ncn5)CC4)C3)cc2)CC1 (stereo not shown)	0.4
CC1(C)CCN(Cc2ccc(N3CC(=O)NC4(CCN(c5cc(NCCCNC(=O)CCOCCOCCOCCNc6cccc7c6C(=O)N(C6CCC(=O)NC6=O)C7=O)ncn5)CC4)C3)cc2)CC1 (stereo not shown)	0.3
CC1(C)CCN(Cc2cc(F)c(N3CC(=O)NC4(CCN(c5cc(NCc6cccc(CNC(=O)CCCCCNc7cccc8c7C(=O)N(C7CCC(=O)NC7=O)C8=O)c6)ncn5)CC4)C3)cc2F)CC1 (stereo not shown)	0.8
CC1(C)CCN(Cc2cc(F)c(N3CC(=O)NC4(CCN(c5cc(NCC6CCN(C(=O)CNc7cccc8c7C(=O)N(C7CCC(=O)NC7=O)C8=O)CC6)ncn5)CC4)C3)cc2F)CC1 (stereo not shown)	1.3
CC1(C)CCN(Cc2cc(F)c(N3CC(=O)NC4(CCN(c5cc(NCC6CCN(C(=O)CCCCCCCNc7cccc8c7C(=O)N(C7CCC(=O)NC7=O)C8=O)CC6)ncn5)CC4)C3)cc2F)CC1 (stereo not shown)	1.2

====

Molecular target: ternary complex CRBN/PROTAC/METTL3–14 (Homo sapiens, UniProt Q86U44+Q96SW2)
Construct: methyltransferase domains (MTD) of METTL3 (residues 354–580); His6 (N, cleaved yes); made in house; host or cells: METTL3-MTD/METTL14-MTD: baculovirus/Sf9; CRBN-TBD: E. coli Rosetta (DE3), co-expressed with BirA
Assay: FRET-based ternary complex formation assay (TCFA)
Assay type: binding
Details: Hook curve amplitude, fraction of the maximum of compound 16
// reported TCFA amplitude (mean ± SEM) per item
Measurement name: TCFA amplitude (mean ± SEM)

Molecule	Data value
CC1(C)CCN(Cc2cc(F)c(N3CC(=O)NC4(CCN(c5cc(NCCCNC(=O)CCCCCCCCCCNc6cccc7c6CN(C6CCC(=O)NC6=O)C7=O)ncn5)CC4)C3)cc2F)CC1 (centres unmarked) [Compound 11]	0.3
CC1(C)CCN(Cc2cc(F)c(N3CC(=O)NC4(CCN(c5cc(NCc6cn(CCCCCCCCC(=O)Nc7cccc8c7CN(C7CCC(=O)NC7=O)C8=O)nn6)ncn5)CC4)C3)cc2F)CC1 (centres unmarked) [Compound 26]	0.8
CC1(C)CCN(Cc2cc(F)c(N3CC(=O)NC4(CCN(c5cc(NCC6CCN(C(=O)CN7CCN(c8cccc9c8C(=O)N(C8CCC(=O)NC8=O)C9=O)CC7)CC6)ncn5)CC4)C3)cc2F)CC1 (centres unmarked) [Compound 35]	0.7
CC1(C)CCN(Cc2cc(F)c(N3CC(=O)NC4(CCN(c5cc(NCCN6CCN(c7cnc(N8CCN(C(=O)CCCNc9cccc%10c9C(=O)N(C9CCC(=O)NC9=O)C%10=O)CC8)nc7)CC6)ncn5)CC4)C3)cc2F)CC1 (centres unmarked) [Compound 33]	0.8
CC1(C)CCN(Cc2cc(F)c(N3CC(=O)NC4(CCN(c5cc(NCC6CCN(C(=O)CCCNc7ccc8c(c7)C(=O)N(C7CCC(=O)NC7=O)C8=O)CC6)ncn5)CC4)C3)cc2F)CC1 (centres unmarked) [Compound 23]	1.0
